Reference source for all entries: the supplement of paper PMC12645437

- system.under.test: T1, CRBN, Q96SW2;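 note: pooled lentiviral library of zinc finger degron-EGFP fusions in mCherry-positive Jurkat cells, FACS-sorted after compound exposure, with degron abundance counted by next-generation sequencing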
- T1 chain: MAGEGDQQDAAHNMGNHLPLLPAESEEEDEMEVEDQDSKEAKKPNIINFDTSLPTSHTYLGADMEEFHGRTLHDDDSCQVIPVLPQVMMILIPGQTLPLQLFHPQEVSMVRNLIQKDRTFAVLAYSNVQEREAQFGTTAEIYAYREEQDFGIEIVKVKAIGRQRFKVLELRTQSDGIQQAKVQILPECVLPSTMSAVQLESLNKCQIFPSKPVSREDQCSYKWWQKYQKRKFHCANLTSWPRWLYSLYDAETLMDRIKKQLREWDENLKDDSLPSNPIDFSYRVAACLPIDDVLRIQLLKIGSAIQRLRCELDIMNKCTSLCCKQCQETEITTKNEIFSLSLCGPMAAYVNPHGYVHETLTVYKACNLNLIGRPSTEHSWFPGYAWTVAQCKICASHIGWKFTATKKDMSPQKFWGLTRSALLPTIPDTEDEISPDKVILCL
- measurement.description: log2 fold change of degron read counts, EGFP-low vs EGFP+ sorted cells (limma voom), compound-induced degradation; higher = more compound-induced degradation of the degron-EGFP fusion; degrons are variants of IKZF1/3 zinc finger 2; compound dose not given here
- measurement.context: Jurkat; 18 h; compound: compound 22 (5-morpholino-thalidomide)
In all, about 8,300 sequences were measured (“log2 fold change of degron read counts, EGFP-low vs EGFP+ sorted cells (limma voom), compound-induced degradation”: median about -1.1, highest 2% from about 3.2 on). The sample holds the highest values, similar sequences and a random draw of the others, so the mix is not that of the screen.
Classification field. Basis: log2 fold change of degron read counts. Definitions: low interval (below -0.6), middle interval (-0.6 to below 2), high interval (2 or more)

Looking at FKCPICGHLFTQKGNLLRHIKL [46F_47K_49P_50I_52G_53H_54L_55F_67L_, Q9UKT9] , which class would you pick?
low interval

Form: Item = FHCDICGACFTQKGNLLRHIKL [46F_47H_49D_50I_52G_53A_54C_55F_67L_, Q9UKT9] ; Class = ?
middle interval

Please report the category associated with FICPICGASFTQKGNLLRHIKL [46F_47I_49P_50I_52G_53A_54S_55F_67L_, Q9UKT9] , nothing else.
high interval

// return the class label for FSCPICGASFTQKGNLLRHIKL [46F_47S_49P_50I_52G_53A_54S_55F_67L_, Q9UKT9]
high interval

Exam item: assign FTCEICGRFFTQKGNLLRHIKL [46F_47T_49E_50I_52G_53R_54F_55F_67L_, Q9UKT9] to the correct category.
low interval

# bin lookup: classify FHCPVCGADFTQKGNLLRHIKL [46F_47H_49P_50V_52G_53A_54D_55F_67L_, Q9UKT9] by its log2 fold change of degron read counts
low interval

State the class of the sequence shown: FYCDICGACFTQKGNLLRHIKL [46F_47Y_49D_50I_52G_53A_54C_55F_67L_, Q9UKT9]
high interval

// return the class label for FDCNQCGHAFTQKGNLLRHIKL [46F_47D_49N_50Q_52G_53H_54A_55F_67L_, Q9UKT9]
low interval

GET /class?item= FYCDVCGAAFTQKGNLLRHIKL [46F_47Y_49D_50V_52G_53A_54A_55F_67L_, Q9UKT9]
high interval

For the record FACDICGACFTQKGNLLRHIKL [46F_47A_49D_50I_52G_53A_54C_55F_67L_, Q9UKT9] , report the class its log2 fold change of degron read counts corresponds to.
middle interval

Record FYCPQCGAHFTQKGNLLRHIKL [46F_47Y_49P_50Q_52G_53A_54H_55F_67L_, Q9UKT9] — which class?
middle interval

State the class of the sequence shown: FSCDICGACFTQKGNLLRHIKL [46F_47S_49D_50I_52G_53A_54C_55F_67L_, Q9UKT9]
middle interval

Consider FACPVCGAAFTQKGNLLRHIKL [46F_47A_49P_50V_52G_53A_54A_55F_67L_, Q9UKT9] . To which log2 fold change of degron read counts class does it belong?
high interval

Which class is correct for the following sequence? FACPICGASFTQKGNLLRHIKL [46F_47A_49P_50I_52G_53A_54S_55F_67L_, Q9UKT9]
high interval
